# SYSTEM_TESTED: human GPR40 receptor (Homo sapiens (Human), UniProt O14842)
# Sequence (O14842 whole entry): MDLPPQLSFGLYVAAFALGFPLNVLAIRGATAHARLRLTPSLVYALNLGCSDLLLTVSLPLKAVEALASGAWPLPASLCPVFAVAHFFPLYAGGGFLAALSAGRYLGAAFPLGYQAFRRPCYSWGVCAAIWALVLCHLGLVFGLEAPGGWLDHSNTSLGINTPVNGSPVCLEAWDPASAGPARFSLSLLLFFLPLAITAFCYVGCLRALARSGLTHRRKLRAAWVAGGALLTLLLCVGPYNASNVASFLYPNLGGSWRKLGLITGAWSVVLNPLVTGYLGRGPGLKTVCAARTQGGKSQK
# MEASUREMENT_NOTES: IP1 accumulation measurements using the IPOne assay system
# Assay type: cell-based
# SETTINGS: 1321N1 cells stably expressing human GPR40, 1 h at 37° C.
MEASURED_ATTRIBUTE: EC50 (µM)
Answers are plain numbers, in µM.

Solved entries (count: 3):
Cc1cc(OCC(=O)O)cc(C)c1-c1ccc(F)c(CNc2ccc([C@H]3C[C@@H]3C(=O)O)nc2)c1 [Example 14]	4.52
COc1cc(OC)c(F)c(-c2ccc(F)c(CNc3ccc([C@H]4C[C@@H]4C(=O)O)nc3)c2)c1F [Example 52]	0.836
Cc1cc(-c2ccn(C)c(=O)c2)cc(C)c1-c1ccc(F)c(CNc2ccc([C@H]3C[C@@H]3C(=O)O)nc2)c1 [Example 16]	0.029

Next up:
Reported EC50 for COc1ccc(-c2ccc(-c3cc(CNc4ccc([C@H]5C[C@@H]5C(=O)O)nc4)c(F)cc3F)cc2)nn1 [Example 6] was 0.064

----------
# SYSTEM_TESTED: UniProt:O14842
# MEASUREMENT_NOTES: IP1 accumulation measurements using the IPOne assay system
# SETTINGS: 1321N1 cells stably expressing human GPR40, 1 h at 37° C.
Note: every record was labeled by where its EC50 sits among bucket A (below 30 nM), bucket B (30 nM to below 200 nM), bucket C (200 nM or more)

Observe how each entry below is paired with its result.
COc1ccc(-c2ccc(-c3cc(CNc4ccc([C@H]5C[C@@H]5C(=O)O)nc4)c(F)cc3F)cc2)nc1 [Example 7]	bucket A
Cc1cc(-c2ccn(C)c(=O)n2)cc(C)c1-c1ccc(F)c(CNc2ccc([C@H]3C[C@@H]3C(=O)O)nc2)c1 [Example 56]	bucket B
CNC(=O)c1cc(C)c(-c2ccc(F)c(CNc3ccc([C@H]4C[C@@H]4C(=O)O)nc3)c2)c(C)c1 [Example 43]	bucket C
Cc1cc(-c2ccnn2C)cc(C)c1-c1ccc(F)c(CNc2ccc([C@H]3C[C@@H]3C(=O)O)nc2)c1 [Example 55]	bucket A
O=C(O)[C@H]1C[C@@H]1c1ccc(NCc2cc(-c3c(F)cc(OC4CC4)cc3F)ccc2F)cn1 [Example 33]	bucket C

*Q* Each compound maps to one class by EC50. Which class for Cc1cc(OCCCS(C)(=O)=O)cc(C)c1-c1cccc(CNc2ccc([C@H]3CC3C(=O)O)nc2)c1 (stereo partly drawn) [Example 1] ?
*A* bucket B

*Q* Each compound maps to one class by EC50. Which class for O=C(O)[C@H]1C[C@@H]1c1ccc(NCc2cc(-c3c(Cl)cccc3Cl)ccc2F)cn1 [Example 30] ?
*A* bucket B

----------
Record form. Attribute: log10 of EC50. Fill in for each entry.
# SYSTEM_TESTED: human GPR40 receptor (Homo sapiens (Human), UniProt O14842)
# MEASUREMENT_NOTES: IP1 accumulation measurements using the IPOne assay system
# SETTINGS: 1321N1 cells stably expressing human GPR40, 1 h at 37° C.
# Experimental: IP1 accumulation measurements using the IPOne assay system—1321N1 cells stably expressing human GPR40 receptor (Euroscreen, Belgium) are seeded 24 h before the assay in white 384-well plates in culture medium containing 10% FCS, 1% Na-Pyruvate and 400 μg/mL G418. IP1 is assayed according to the manufacturer's description (Cisbio Bioassays, France). […] After an incubation time of 1 h at room temperature plates are measured using an EnVision™, Perkin Elmer. […]
Transform log10 | Measure EC50 | Unit nM

Solved entries (count: 5):
Cc1cc(C#N)cc(C)c1-c1ccc(F)c(CNc2ccc([C@H]3C[C@@H]3C(=O)O)nc2)c1	1.96
N#CC1(c2ccccc2-c2ccc(F)c(CNc3ccc([C@H]4C[C@@H]4C(=O)O)nc3)c2)CC1	2.84
O=C(O)[C@H]1C[C@@H]1c1ccc(NCc2cc(-c3ccccc3C(F)(F)F)ccc2F)cn1	1.58
COc1cc(F)c(-c2ccc(F)c(CNc3ccc([C@H]4C[C@@H]4C(=O)O)nc3)c2)c(F)c1	2.99
COc1c(F)cc(-c2cc(CNc3ccc([C@H]4C[C@@H]4C(=O)O)nc3)c(F)cc2F)cc1F	1.72

Quick batch: log10 of EC50 for everything below.
1. Cc1cc(OCC(C)(C)O)cc(C)c1-c1ccc(F)c(CNc2ccc([C@H]3C[C@@H]3C(=O)O)nc2)c1
2. Cc1cc(-c2nnn(CC(C)(C)O)n2)cc(C)c1-c1ccc(F)c(CNc2ccc([C@H]3C[C@@H]3C(=O)O)nc2)c1
3. Cc1cc(OCCC(C)(C)O)cc(C)c1-c1cc(CNc2ccc([C@H]3C[C@@H]3C(=O)O)nc2)ccc1C(F)(F)F
4. Cc1cc(-c2ccn(C)c(=O)c2)cc(C)c1-c1ccc(F)c(CNc2ccc([C@H]3C[C@@H]3C(=O)O)nc2)c1 [Example 17]
5. COc1cc(-c2cc(C)c(-c3ccc(F)c(CNc4ccc([C@H]5C[C@@H]5C(=O)O)nc4)c3)c(C)c2)ccn1
6. O=C(O)[C@H]1C[C@@H]1c1ccc(NCc2cc(-c3c(F)cccc3F)ccc2F)cn1

*A*
1. 2.00
2. 1.00
3. 1.08
4. 1.26
5. 0.70
6. 2.64

----------
# MEASUREMENT_NOTES: Aqueous solubility (buffer vs acetonitrile/water, LC-UV)
# Assay type: physicochemical
# SETTINGS: pH 2.2
MEASURED_ATTRIBUTE: Solubility at pH value 2.2

Cc1cc(O[C@@H]2CCOC2)cc(C)c1-c1ccc(F)c(CNc2ccc([C@H]3C[C@@H]3C(=O)O)nc2)c1	64 μg/mL

Quick batch: Solubility at pH value 2.2 for everything below.
1. COc1cc(C)c(-c2ccc(F)c(CNc3ccc([C@H]4C[C@@H]4C(=O)O)nc3)c2)c(C)c1
2. N#CC1(c2ccccc2-c2ccc(F)c(CNc3ccc([C@H]4C[C@@H]4C(=O)O)nc3)c2)CC1
3. Cc1cc(OCC2CCOC2)cc(C)c1-c1ccc(F)c(CNc2ccc([C@H]3C[C@@H]3C(=O)O)nc2)c1 (some centres unmarked)

*A*
63 μg/mL
57 μg/mL
70 μg/mL

Quick batch: Solubility at pH value 2.2 for everything below.
1. Cc1cc(O[C@H]2CCOC2)cc(C)c1-c1ccc(F)c(CNc2ccc([C@H]3C[C@@H]3C(=O)O)nc2)c1
2. Cc1cc(-c2ccn(C)c(=O)c2)cc(C)c1-c1ccc(F)c(CNc2ccc([C@H]3C[C@@H]3C(=O)O)nc2)c1 [Example 17]
3. COc1cc(OC)c(Cl)c(-c2ccc(F)c(CNc3ccc([C@H]4C[C@@H]4C(=O)O)nc3)c2)c1Cl

*A*
1: 69 μg/mL; 2: 73 μg/mL; 3: 18 μg/mL

----------
# MEASUREMENT_NOTES: Aqueous solubility (buffer vs acetonitrile/water, LC-UV)
# Assay type: physicochemical
# SETTINGS: aqueous buffer, kinetic from dmso stock; pH 2.2 buffer, 24 h shaking, 2.5% DMSO; examples in this invention
MEASURED_ATTRIBUTE: solubility at 24 h

Solved entries (count: 3):
COc1ccc(-c2ccc(-c3cc(CNc4ccc([C@H]5C[C@@H]5C(=O)O)nc4)c(F)cc3F)cc2)nc1	77 µg/mL
Cc1cc(OCCCS(C)(=O)=O)cc(C)c1-c1cccc(CNc2ccc([C@H]3CC3C(=O)O)nc2)c1 (stereo partly shown)	83 µg/mL
O=C(O)[C@H]1C[C@@H]1c1ccc(NCc2ccc(C(F)(F)F)c(-c3ccc(OC(F)(F)F)cc3)c2)cn1	14 µg/mL

Next up:
Reported solubility at 24 h for Cc1cc(N)ccc1-c1cc(CNc2ccc([C@H]3C[C@@H]3C(=O)O)nc2)c(F)cc1F was > 96 µg/mL

----------
# MEASUREMENT_NOTES: Aqueous solubility (buffer vs acetonitrile/water, LC-UV)
# Assay type: physicochemical
# SETTINGS: pH 2.2
MEASURED_ATTRIBUTE: Solubility at pH value 2.2 (μg/mL)
One number for each entry, in μg/mL.

Solved entries (count: 5):
Cc1ccc(Cl)c(-c2ccc(F)c(CNc3ccc([C@H]4C[C@@H]4C(=O)O)nc3)c2)c1Cl	43
Cc1cc(OC2CCOCC2)cc(C)c1-c1ccc(F)c(CNc2ccc([C@H]3C[C@@H]3C(=O)O)nc2)c1	66
COc1cc(OC)c(F)c(-c2ccc(F)c(CNc3ccc([C@H]4C[C@@H]4C(=O)O)nc3)c2)c1F	62
Cc1cc(OCC2(O)CCS(=O)(=O)CC2)cc(C)c1-c1ccc(F)c(CNc2ccc([C@H]3C[C@@H]3C(=O)O)nc2)c1	102
CNC(=O)c1cc(C)c(-c2ccc(F)c(CNc3ccc([C@H]4C[C@@H]4C(=O)O)nc3)c2)c(C)c1	84

Reported Solubility at pH value 2.2 for Cc1cc(-c2nnn(CC(C)(C)O)n2)cc(C)c1-c1ccc(F)c(CNc2ccc([C@H]3C[C@@H]3C(=O)O)nc2)c1 was 81
